experimental target: Estrogen receptor (Homo sapiens, UniProt P03372)
Sequence (P03372 whole entry): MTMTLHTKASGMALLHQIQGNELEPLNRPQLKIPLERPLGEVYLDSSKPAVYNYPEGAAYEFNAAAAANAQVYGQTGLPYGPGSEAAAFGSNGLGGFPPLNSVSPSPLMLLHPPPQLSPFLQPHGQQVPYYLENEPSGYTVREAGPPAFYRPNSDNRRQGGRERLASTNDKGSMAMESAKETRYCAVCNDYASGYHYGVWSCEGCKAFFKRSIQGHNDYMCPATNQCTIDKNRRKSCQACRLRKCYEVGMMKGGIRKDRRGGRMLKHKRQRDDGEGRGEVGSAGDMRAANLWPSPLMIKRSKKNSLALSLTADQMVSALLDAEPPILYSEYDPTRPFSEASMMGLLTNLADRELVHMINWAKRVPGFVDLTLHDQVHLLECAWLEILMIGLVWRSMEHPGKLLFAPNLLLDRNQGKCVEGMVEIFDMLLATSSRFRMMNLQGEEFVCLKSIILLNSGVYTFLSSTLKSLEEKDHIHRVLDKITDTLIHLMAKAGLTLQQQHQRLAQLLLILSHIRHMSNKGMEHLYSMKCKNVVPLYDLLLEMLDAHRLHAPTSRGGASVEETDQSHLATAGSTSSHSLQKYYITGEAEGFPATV
procedure details: Antiestrogenic activity in human T47D cells expressing estrogen receptor assessed as estrogen-dependent transcription by luciferase reporter gene assay
pIC50: −log10 of the molar value.
Measured pIC50 of individual entries

>  <compound smiles>
COc1ccccc1CNC(=O)c1cc(C(F)(F)F)nn1-c1cccc(CNC(=O)[C@H](C)N)c1

>  <pIC50>
< 5.00

$$$$

Lab note: next compound to report on.
Data request: API: value(readout= pIC50, system= Estrogen receptor (Homo sapiens, UniProt P03372), query= COc1ccccc1CNC(=O)c1cc(C(F)(F)F)nn1-c1csc(CNC(=O)[C@H](C)N)c1 )
Data returned: < 5.00

* * *

experimental target: Histone-arginine methyltransferase CARM1 (Mus musculus, UniProt Q9WVG6)
Sequence (Q9WVG6 whole entry): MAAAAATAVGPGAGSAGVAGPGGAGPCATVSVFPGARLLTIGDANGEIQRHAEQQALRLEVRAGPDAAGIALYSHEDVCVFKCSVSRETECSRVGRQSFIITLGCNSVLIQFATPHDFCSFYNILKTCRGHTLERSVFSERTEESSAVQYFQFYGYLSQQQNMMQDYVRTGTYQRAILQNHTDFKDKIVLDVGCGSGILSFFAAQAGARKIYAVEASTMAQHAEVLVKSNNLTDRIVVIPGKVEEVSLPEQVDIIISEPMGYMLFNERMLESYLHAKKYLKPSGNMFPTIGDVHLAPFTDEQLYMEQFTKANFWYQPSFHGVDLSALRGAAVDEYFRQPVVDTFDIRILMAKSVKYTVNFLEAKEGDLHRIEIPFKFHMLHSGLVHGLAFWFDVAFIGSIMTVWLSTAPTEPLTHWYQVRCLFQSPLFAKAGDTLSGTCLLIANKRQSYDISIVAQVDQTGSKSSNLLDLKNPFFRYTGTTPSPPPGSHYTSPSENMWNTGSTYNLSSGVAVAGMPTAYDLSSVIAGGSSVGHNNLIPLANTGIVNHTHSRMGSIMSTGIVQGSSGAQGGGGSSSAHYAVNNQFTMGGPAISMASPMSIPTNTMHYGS
procedure details: Inhibition of mouse recombinant his-tagged CARM1 expressed in Sf9 cells by histone methyltransferase assay
test readout: pIC50
In textbook form, pIC50 equals minus log to base ten of the concentration in mol/L.

These solved cases illustrate the format of a correct answer.
>  <compound smiles>
COc1ccccc1CNC(=O)c1cc(C(F)(F)F)nn1-c1csc(CNC(=O)[C@H](C)N)c1

>  <experimental target>
Histone-arginine methyltransferase CARM1 (Mus musculus, UniProt Q9WVG6)

>  <pIC50>
7.22

$$$$
>  <compound smiles>
Cc1ccccc1CNC(=O)c1cc(C(F)(F)F)nn1-c1csc(CNC(=O)[C@H](C)N)c1

>  <experimental target>
Histone-arginine methyltransferase CARM1 (Mus musculus, UniProt Q9WVG6)

>  <pIC50>
6.59

$$$$
>  <compound smiles>
C[C@H](N)C(=O)NCc1ccc(-n2nc(C(F)(F)F)cc2C(=O)NCc2ccccc2F)s1

>  <experimental target>
Histone-arginine methyltransferase CARM1 (Mus musculus, UniProt Q9WVG6)

>  <pIC50>
5.64

$$$$

Data request: Please give the measured pIC50 for this compound: C[C@H](N)C(=O)NCc1ccc(-n2nc(C(F)(F)F)cc2C(=O)NCc2ccccc2C(F)(F)F)s1
Data returned: 5.35

Data request: pIC50 for COc1ccccc1CNC(=O)c1cc(C(F)(F)F)nn1-c1nc(CNC(=O)[C@H](C)N)cs1 ?
Data returned: 5.66

Data request: If you can, please state the reported pIC50 value of COC(=O)c1ccccc1CNC(=O)c1cc(C(F)(F)F)nn1-c1csc(CNC(=O)[C@H](C)N)c1 .
Data returned: 6.11

Data request: Any idea what its pIC50 is? The compound is COc1ccccc1CNC(=O)c1cc(C(F)(F)F)nn1-c1cccc(CNC(=O)[C@H](C)N)c1
Data returned: 7.22

Data request: Form field: reported pIC50 of CC(C)Oc1ccccc1CNC(=O)c1cc(C(F)(F)F)nn1-c1ccc(CNC(=O)[C@H](C)N)s1
Data returned: 5.53

Data request: Need pIC50, item COc1ccccc1CNC(=O)c1cc(C(F)(F)F)nn1-c1ccc(CNC(=O)[C@H](C)N)s1
Data returned: 6.52
